- System: Kasumi-1
- protocol.notes: MTT cell viability assay, Kasumi-1
- Type: cell-based
- study.conditions: Kasumi-1 leukemia cells, MTT, 48 or 72 hr; read-out: LC50 (the source's name)
measure: CC50

                                   compound  measure  recorded_value
0  Nc1ccn([C@@H]2O[C@H](CO)[C@@H](O)[C@@H]2O)c(=O)n1 [Ara-C, reference compound]     CC50         > 10 µM

* * *

- Tested on: K562
- protocol.notes: cells
- study.conditions: K562 leukemia cells, MTT, 48 or 72 hr
measure: TGI

>>> df
                                   compound  measure  recorded_value
0  O=C(CCCCCCC(=O)Nc1ccccc1)NO [SAHA, reference compound]      TGI          >10 µM
1  O=C(C=Cc1ccc2c(ccn2S(=O)(=O)c2ccccc2)c1)NO      TGI          >10 µM
2  O=C(C=Cc1ccc2c(c1)CCN2S(=O)(=O)c1ccccc1)NO      TGI        0.982 µM
3  Nc1ccn([C@@H]2O[C@H](CO)[C@@H](O)[C@@H]2O)c(=O)n1 [Ara-C, reference compound]      TGI          >10 µM

* * *

- Test system: A549 (non-small cell lung cancer)
- protocol.notes: SRB assay, A549
- Format: cell-based, Human
- study.conditions: Homo sapiens, A549 cells, 48 h
- Experimental: Human cancer A549 (non-small cell lung cancer), MDA-MB-231 (estrogen-independent breast cancer), Hep 3B (hepatoma), and HA22T (hepatoma) cells were seeded in 96-well plates in medium with 5% FBS. […] The absorbance was read at a wavelength of 515 nm. Using the absorbance measurements of time zero (T0), the control group (C), and the cell growth in the presence of the compound (Ti), the percentage growth was calculated at each of the compound concentrations levels.
So basically: is GI50 under 0.9 µM? Then true. Not under? Then false.

>>> df
                                    compound  discrete_label
 0  O=C(C=Cc1ccc2c(ccn2S(=O)(=O)c2ccc([N+](=O)[O-])cc2)c1)NO           false
 1  O=C(C=Cc1ccc2c(c1)CCN2S(=O)(=O)c1ccc([N+](=O)[O-])cc1)NO            true
 2  COc1ccc(S(=O)(=O)n2ccc3cc(C=CC(=O)NO)ccc32)cc1OC           false
 3  O=C(C=Cc1ccc2c(ccn2S(=O)(=O)c2ccc(F)cc2)c1)NO           false
 4  O=C(C=Cc1ccc2c(c1)CCN2S(=O)(=O)c1ccccc1)NO            true
 5  COc1ccc(S(=O)(=O)N2CCc3cc(C=CC(=O)NO)ccc32)cc1            true
 6  COc1ccc(S(=O)(=O)N2CCc3cc(C=CC(=O)NO)ccc32)cc1OC            true
 7  O=C(C=Cc1ccc2c(c1)CCN2S(=O)(=O)c1ccc(F)cc1)NO            true
 8  Nc1ccc(S(=O)(=O)n2ccc3cc(C=CC(=O)NO)ccc32)cc1           false
 9  Nc1ccc(S(=O)(=O)N2CCc3cc(C=CC(=O)NO)ccc32)cc1           false
10  O=C(C=Cc1ccc2c(ccn2S(=O)(=O)c2ccccc2)c1)NO           false
11  COc1ccc(S(=O)(=O)n2ccc3cc(C=CC(=O)NO)ccc32)cc1           false

Measured values drawn from patent US9598364B2 for this set.
